Source listed as patent US4608373A.

Field: MIC. Provide a value for each of the compounds that follow.
Tested on: Ps. aeruginosa NCTC 10490
Assay: Antibacterial activity (MIC), Ps. aeruginosa NCTC 10490
Assay type: cell-based
Conditions: Pseudomonas aeruginosa, NCTC10490, read-out: MIC (minimum effective inhibitory concentration)
Respond with the bare value in µg/mL.

What value of MIC has been reported for the following compound? Nc1nc(CO/N=C(\C(=O)NC2C(=O)N3C(C(=O)[O-])=C(C[n+]4cccc(C(=O)O)c4)CSC23)c2csc(N)n2)cs1 (stereo not drawn) [Example 13]
1.56

What does the record list as MIC for Nc1nc(CO/N=C(\C(=O)NC2C(=O)N3C(C(=O)[O-])=C(C[n+]4cccc(O)c4)CS[C@H]23)c2csc(N)n2)cs1 (stereo partly drawn) [Example 16] ?
1.56

Consider the compound shown here: Nc1ccc[n+](CC2=C(C(=O)[O-])N3C(=O)C(NC(=O)/C(=N\OCc4csc(N)n4)c4csc(N)n4)[C@H]3SC2)c1 (stereo partly drawn) [Example 19] What is its recorded MIC?
0.78

What does the record list as MIC for NC(=O)c1cc[n+](CC2=C(C(=O)[O-])N3C(=O)C(NC(=O)/C(=N\OCc4csc(N)n4)c4csc(N)n4)C3SC2)cc1 (stereo not drawn) [Example 9] ?
0.39

# lookup: MIC of Cn1nc(O)c(=O)nc1SCC1=C(C(=O)O)N2C(=O)C(NC(=O)/C(=N\OCc3csc(N)n3)c3csc(N)n3)[C@H]2SC1 (stereo partly drawn) [Example 5]
1.56

Fill in: MIC of Nc1nc(CO/N=C(\C(=O)NC2C(=O)N3C(C(=O)[O-])=C(C[n+]4ccccn4)CSC23)c2csc(N)n2)cs1 (stereo not drawn) [Example 7] is ___
0.78
